This collection of values is drawn from PubChem BioAssay AID248.

system: L1210 leukemia ip in BDF1 mice, survival T/C; experiment: NCI In Vivo Anticancer Drug Screen. Data for tumor model L1210 Leukemia (intraperitoneal) in B6D2F1 (BDF1) mice; settings: endpoint: mean survival time; dose: 40.0 mg/kg/injection; schedule: Q01DX001 (ip); vehicle: saline; higher = longer survival
Toxic doses and inconclusive results are not listed.
Examples of molecules with documented T/C follow.

Below, 3 molecules whose answers are already recorded.
[
  {
    "molecule": "CC1N2CC12c1ccccc1 (configuration not stated)",
    "T/C": "103 % of control"
  },
  {
    "molecule": "[O-][n+]1ccccc1F",
    "T/C": "96 % of control"
  },
  {
    "molecule": "Cc1c[n+]2c3ccccc3c3ccccc3c2s1",
    "T/C": "98 % of control"
  }
]

Requested read-out: T/C. Entry: c1ccc(CCC[P+](c2ccccc2)(c2ccccc2)c2ccccc2)cc1
117 % of control

Requested read-out: T/C. Entry: CCC1CCCCN1 (configuration not stated)
103 % of control

Requested read-out: T/C. Entry: N=[N+]=CC(=O)OCC(N)C(=O)O (configuration not stated)
112 % of control

Requested read-out: T/C. Entry: C[N+]1(C)C2CCCCC1CC(=O)C2
95 % of control

---

Examples of compounds with documented T/C follow.
Test system: L1210 leukemia ip in BDF1 mice, survival T/C
Assay: NCI In Vivo Anticancer Drug Screen. Data for tumor model L1210 Leukemia (intraperitoneal) in B6D2F1 (BDF1) mice
Conditions: endpoint: mean survival time; dose: 400.0 mg/kg/injection; schedule: Q01DX001 (ip); vehicle: saline; higher = longer survival
Protocol: The antitumor activity of compounds was measured in mice bearing transplantable tumors. Survival or tumor size were measured and the results are expressed as the measurement made in the treated group (T) divided by the measurement made in the vehicle treated control group (C). The tumor model used in this assay is L1210 Leukemia (intraperitoneal) in B6D2F1 (BDF1) mice
Toxic doses and inconclusive results are not listed.

[
  {
    "compound": "Clc1ccc(-c2nnc3c4ccccc4ccn23)cc1",
    "T/C": "98 % of control"
  }
]

Requested read-out: T/C. Entry: Cc1[nH]c(=S)[nH]c(=O)c1CCS
95 % of control

Requested read-out: T/C. Entry: C=CCNC(=O)c1cncc(C(=O)O)c1
98 % of control

Requested read-out: T/C. Entry: NC(=O)C1=C(N)c2ccccc2C1c1ccccc1 (configuration not stated)
97 % of control

Requested read-out: T/C. Entry: CCCCC(=O)c1ccc(C)cc1
96 % of control

Requested read-out: T/C. Entry: C/C(CCC(=O)O)=N/Nc1nnc(N/N=C(/C)CCC(=O)O)c2ccccc12
120 % of control

Requested read-out: T/C. Entry: CCOc1ccc(N)c([N+](=O)[O-])c1
105 % of control

Requested read-out: T/C. Entry: CC(=O)OC1CC2(Cl)C(Cl)=C(Cl)C1(Cl)C2(Cl)Cl (configuration not stated)
98 % of control

Requested read-out: T/C. Entry: CC(=O)OCC1OC(n2cnc([N+](=O)[O-])c2Br)C(OC(C)=O)C1OC(C)=O (configuration not stated)
102 % of control

---

system: L1210 leukemia ip in BDF1 mice, survival T/C; assay: NCI In Vivo Anticancer Drug Screen. Data for tumor model L1210 Leukemia (intraperitoneal) in B6D2F1 (BDF1) mice; details: endpoint: mean survival time; dose: 200.0 mg/kg/injection; schedule: Q01DX001 (ip); vehicle: Klucel (hydroxypropylcellulose) (HPC); higher = longer survival
Toxic doses and inconclusive results are not listed.
readout.kind: T/C

[
  {
    "compound": "COc1ccc(C23CCCC(=O)C2C2C(=O)CCCC23c2ccc(OC)cc2)cc1 (centres undefined)",
    "T/C": "97 % of control"
  },
  {
    "compound": "Cc1ccc(-n2c(=O)c(N=Nc3ccccc3C)c(O)n(-c3ccccc3Cl)c2=S)cc1",
    "T/C": "98 % of control"
  },
  {
    "compound": "O=C(O)c1cc2ccccc2oc1=O",
    "T/C": "97 % of control"
  },
  {
    "compound": "NC(=O)c1cc(Cl)cc(Cl)c1N",
    "T/C": "107 % of control"
  },
  {
    "compound": "CC(=O)c1ccc(C(=O)NCCCc2c(-c3ccccc3)nc(N)[nH]c2=O)cc1",
    "T/C": "94 % of control"
  }
]

Requested read-out: T/C. Entry: CCOC(=O)c1c(-c2ccccc2)cn2c1OC(C)CC2(C)C (centres undefined)
100 % of control

Requested read-out: T/C. Entry: CCCCCCCCCCCCCCCCCC(=O)C(C)(C)C
98 % of control

Requested read-out: T/C. Entry: O=C(O)CCCCCCCCC(=O)c1cc(O)ccc1O
94 % of control

Requested read-out: T/C. Entry: Nc1cccc(OCCCn2cc(-c3ccc(Cl)c(Cl)c3)c(N)nc2=O)c1
92 % of control

Requested read-out: T/C. Entry: Cc1ccc(C(=O)/C=C2/SS/C(=C/C(=O)c3ccc(C)cc3)S2)cc1
95 % of control

---

system: L1210 leukemia ip in BDF1 mice, survival T/C; assay: NCI In Vivo Anticancer Drug Screen. Data for tumor model L1210 Leukemia (intraperitoneal) in B6D2F1 (BDF1) mice; details: endpoint: mean survival time; dose: 12.5 mg/kg/injection; schedule: Q01DX009 (ip); vehicle: saline with Tween-80; higher = longer survival
Inconclusive results and toxic doses are left out.
readout.kind: T/C

Below, 8 compounds whose answers are already recorded.
[
  {
    "compound": "CC(=O)[O][Hg][c]1cc(-c2ccc(N=Nc3c(S(=O)(=O)O)cc4cccc(N)c4c3O)cc2)ccc1N=Nc1c(S(=O)(=O)O)cc2cccc(N)c2c1O",
    "readout.kind": "T/C",
    "assay.result": "92 % of control"
  },
  {
    "compound": "N#CC(Nc1ccccc1)C1CC1c1ccccc1 (centres undefined)",
    "readout.kind": "T/C",
    "assay.result": "94 % of control"
  },
  {
    "compound": "O=C1NC2CCC(NC(=O)N1c1ccccc1)C1=C2C1",
    "readout.kind": "T/C",
    "assay.result": "97 % of control"
  },
  {
    "compound": "C1=Cc2ccccc2/C1=C/c1cccc(/C=C2\\C=Cc3ccccc32)c1",
    "readout.kind": "T/C",
    "assay.result": "97 % of control"
  },
  {
    "compound": "CC(=O)OC1(c2ccc(Cl)cc2)OC(=O)C(c2ccccc2)=C1Cc1ccccc1 (centres undefined)",
    "readout.kind": "T/C",
    "assay.result": "93 % of control"
  },
  {
    "compound": "CSc1c(Cl)c(C(Cl)(Cl)Cl)nc2ccccc12",
    "readout.kind": "T/C",
    "assay.result": "93 % of control"
  },
  {
    "compound": "CC12CCCCC1SC(F)(F)C2(F)F (centres undefined)",
    "readout.kind": "T/C",
    "assay.result": "95 % of control"
  },
  {
    "compound": "CC1(C)C2CCC1(CS(=O)(=O)O)C(=O)C2.[Ag] (centres undefined)",
    "readout.kind": "T/C",
    "assay.result": "90 % of control"
  }
]

Requested read-out: T/C. Entry: OC1CC2CC1C1C3C=CC(C3)C21 (centres undefined)
101 % of control

---

System: L1210 leukemia ip in BDF1 mice, survival T/C
Assay: NCI In Vivo Anticancer Drug Screen. Data for tumor model L1210 Leukemia (intraperitoneal) in B6D2F1 (BDF1) mice
Conditions: endpoint: mean survival time; dose: 100.0 mg/kg/injection; schedule: Q04DX003 (ip); vehicle: Klucel (hydroxypropylcellulose) (HPC); higher = longer survival
Method: The antitumor activity of compounds was measured in mice bearing transplantable tumors. Survival or tumor size were measured and the results are expressed as the measurement made in the treated group (T) divided by the measurement made in the vehicle treated control group (C). The tumor model used in this assay is L1210 Leukemia (intraperitoneal) in B6D2F1 (BDF1) mice
Toxic doses and inconclusive results are not listed.
Examples of compounds with documented T/C follow.

Below, 2 compounds whose answers are already recorded.
[
  {
    "compound": "COc1cccc(C2CCN(C)C2)c1 (stereo unspecified)",
    "T/C": "105 % of control"
  },
  {
    "compound": "COc1ccc(COC(=O)Nc2cccc(Cl)c2)cc1",
    "T/C": "108 % of control"
  }
]

Requested read-out: T/C. Entry: O=C(Nc1ccc([N+](=O)[O-])cc1Cl)Oc1ccc2ccccc2c1
100 % of control

Requested read-out: T/C. Entry: c1ccc(-c2cccc(-c3ccccc3)c2)cc1
93 % of control

Requested read-out: T/C. Entry: ClC(Cl)(Cl)C(Cl)(Cl)c1ccc(C(Cl)(Cl)C(Cl)(Cl)Cl)cc1
89 % of control

Requested read-out: T/C. Entry: O=C(O)/C=C\C(=O)Nc1ccc(O)cc1
102 % of control
